# System: PKB Ser473 phosphorylation in Rat1-myr-HA-p110 alpha cells
# assayProcedure: Reverse protein array assay, PKB Ser473 phosphorylation in Rat1-myr-p110 alpha cells
# Type: cell-based
# assaySetup: 0.5 h, pAkt Ser473, 30 minutes compound incubation, read-out: p-PKB IC50
pIC50: −log10 of the molar value.
measure: pIC50

Consider the reported pIC50 for these compounds:
{"compound": "CCOCc1cc(-c2ccc3ncc4c(c3c2)n(-c2cn(CC)nc2C)c(=O)n4C)cnc1N [Example 166.2]", "measure": "pIC50", "measuredValue": 7.42}
{"compound": "CCN(C)c1ccc(-c2ccc3ncc4c(c3c2)n(-c2cn(C(C)C)nc2C)c(=O)n4C)cn1 [Example 98.2]", "measure": "pIC50", "measuredValue": 8.00}
{"compound": "CNC(=O)c1ccc(-c2ccc3ncc4c(c3c2)n(-c2cn(C)nc2Cl)c(=O)n4C)cc1 [Example 43.2]", "measure": "pIC50", "measuredValue": 8.22}
{"compound": "Cc1cc(-n2c(=O)n(C)c3cnc4ccc(-c5cnc(C)c(O)c5)cc4c32)n(C)n1 [Example 185.2]", "measure": "pIC50", "measuredValue": 7.42}

P. Cc1nn(CC(=O)N2CCC2)cc1-n1c(=O)n(C)c2cnc3ccc(-c4cnc(N5CCCC5)nc4)cc3c21 [Example 247.2]
Q. CCn1cc(-n2c(=O)n(C)c3cnc4ccc(-c5cnc(F)c(NC)c5)cc4c32)c(C)n1 [Example 150.1]
R. CCOCc1cc(-c2ccc3ncc4c(c3c2)n(-c2cn(C)nc2C)c(=O)n4C)cnc1N [Example 166.1]
Enquiry: Order the entries by their reported pIC50, beginning at the minimum. Would you mind listing the labels in the order asked for?
Return: P, R, Q
(P: 7.35, R: 7.66, Q: 8.05)
